- target_entity: CDK9 (Homo sapiens)
- Construct: endogenous in cells; host or cells: MDA-MB-231
- procedure_text: CDK protein degradation activity (Western blotting), CDK9
- Assay type: cell-based
- settings: MDA-MB-231 cells, 10 μM, 16 hours, Western blot
property_measured: Enzyme degradation CDK9 (% remaining) @ 10 μM (%)

Below are worked cases with known answers.
O=C1CC[C@H](N2C(=O)c3ccc(OCC(=O)N4CCN(CCCN5CCN(c6ccc(Nc7ncnc8c7ncn8[C@H]7C[C@@H](NC(=O)Cc8ccccc8)C7)cc6)CC5)CC4)cc3C2=O)C(=O)N1 [Compound 234]; 0
O=C1CC[C@@H](c2ccc(OCC(=O)N3CCC(OCCN4CCN(c5ccc(Nc6ncnc7c6ncn7C6CC(NC(=O)Cc7ccccc7)C6)cc5)CC4)CC3)cc2)C(=O)N1 (stereo partly shown) [Compound 250]; 0

[A] O=C1CC[C@H](n2nnc3ccc(N4CCN(C5CCN(c6ccc(Nc7ncnc8c7ncn8C7CC(NC(=O)Cc8ccccc8)C7)cc6)CC5)CC4)cc3c2=O)C(=O)N1 (stereo partly shown) [Compound 357]
[B] Cc1cccc(C(=O)N[C@H]2C[C@@H](n3cnc4c(NCc5ccc(OCCCN6CCN(c7ccc8c(c7)C(=O)N(C7CCC(=O)NC7=O)C8=O)CC6)cc5)ncnc43)C2)n1 (stereo partly shown) [Compound 116]
[C] O=C1CC[C@H](N2C(=O)c3ccc(N4CCC(C(=O)N5CCN(C6CCN(c7ccc(Nc8ncnc9c8ncn9C8CC(NC(=O)Cc9ccccc9)C8)cc7)CC6)CC5)CC4)cc3C2=O)C(=O)N1 (stereo partly shown) [Compound 365]
Problem: Arrange the 3 compounds from largest to smallest Enzyme degradation CDK9 (% remaining) @ 10 μM. Returns: the labels listed in the requested order.
Solution: A, C, B
(A: 30%, C: 10%, B: 0%)

----------
- target_entity: CDK9 (Homo sapiens, UniProt P50750)
- Construct: endogenous in cells; host or cells: MDA-MB-231
- Sequence (P50750 whole entry): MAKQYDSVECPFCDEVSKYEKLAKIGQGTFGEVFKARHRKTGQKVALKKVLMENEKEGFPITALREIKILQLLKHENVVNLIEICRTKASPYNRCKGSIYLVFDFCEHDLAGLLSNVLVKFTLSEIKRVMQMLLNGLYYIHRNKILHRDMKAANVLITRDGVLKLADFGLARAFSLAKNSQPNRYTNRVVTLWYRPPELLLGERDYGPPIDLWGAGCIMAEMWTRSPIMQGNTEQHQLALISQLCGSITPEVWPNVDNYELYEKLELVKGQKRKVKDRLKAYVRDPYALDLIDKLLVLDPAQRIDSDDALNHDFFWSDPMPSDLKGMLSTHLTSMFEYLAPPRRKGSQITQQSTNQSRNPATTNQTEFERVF
- procedure_text: CDK protein degradation activity (Western blotting), CDK9
- Type: cell-based
- settings: MDA-MB-231 cells, 0.1 μM, 16 hours, Western blot
property_measured: Enzyme degradation CDK9 (% remaining) @ 0.1 μM (%)

O=C1CC[C@H](N2C(=O)c3ccc(N4CC(C(=O)N5CCC(CN6CCN(c7ccc(Nc8ncnc9c8ncn9C8CC(NC(=O)Cc9ccccc9)C8)cc7)CC6)CC5)C4)cc3C2=O)C(=O)N1 (stereo partly shown); 10
Cc1cccc(C(=O)NC2CC(n3cnc4c(NCCC5CCN(CC6CCN(c7ccc8c(c7)C(=O)N([C@H]7CCC(=O)NC7=O)C8=O)CC6)CC5)ncnc43)C2)n1 (stereo partly shown); 20
O=C1CC[C@H](N2C(=O)c3ccc(N4CCC5(CC4)CC(N4CCN(c6ccc(Nc7ncnc8c7ncn8[C@H]7C[C@@H](NC(=O)Cc8ccccc8)C7)cc6)CC4)C5)cc3C2=O)C(=O)N1; 10
O=C1CC[C@H](N2C(=O)c3cccc(NC[C@H]4CC[C@H](CN5CCN(c6ccc(Nc7ncnc8c7ncn8[C@H]7C[C@@H](NC(=O)Cc8ccccc8)C7)cc6)CC5)CC4)c3C2=O)C(=O)N1; 70
COc1ccc(C(=O)N2CCC3(CC2)CC(N2CCC(c4ccc(Nc5ncnc6c5ncn6[C@H]5C[C@@H](NC(=O)Cc6ccccc6)C5)cc4)CC2)C3)cc1N1CCC(=O)NC1=O; 40

[I] O=C1CC[C@H](N2C(=O)C=C(N3CCC(C(=O)N4CCC(CC(=O)N5CCN(c6ccc(Nc7ncnc8c7ncn8[C@H]7C[C@@H](NC(=O)Cc8ccccc8)C7)cc6)CC5)CC4)CC3)C2=O)C(=O)N1
[II] O=C1CC[C@H](N2C(=O)c3cc(F)c(N4CCC(CN5CCC(CCNc6ncnc7c6ncn7[C@H]6C[C@@H](NC(=O)c7c(Cl)cccc7Cl)C6)CC5)CC4)cc3C2=O)C(=O)N1
[III] O=C1CC[C@H](N2C(=O)c3ccc(N4CC(C(=O)N5CCN(CCC6CCN(c7ccc(Nc8ncnc9c8ncn9[C@H]8C[C@@H](NC(=O)Cc9ccccc9)C8)cc7)CC6)CC5)C4)cc3C2=O)C(=O)N1
Problem: I would appreciate it if you could sort these 3 compounds by Enzyme degradation CDK9 (% remaining) @ 0.1 μM, starting from the smallest number. Returns: the labels listed in the requested order.
Solution: I, III, II

[I] Cc1cccc(C(=O)NC2CC(n3cnc4c(NC5CCN(C(=O)CC6CCN(C(=O)CNc7cccc8c7C(=O)N([C@H]7CCC(=O)NC7=O)C8=O)CC6)CC5)ncnc43)C2)n1 (stereo partly shown)
[II] O=C1CC[C@H](N2C(=O)c3ccc(N4CCC5(CC4)CC(N4CCC(c6ccc(Nc7ncnc8c7ncn8[C@H]7C[C@@H](NC(=O)Cc8ccccc8)C7)cc6)CC4)C5)cc3C2=O)C(=O)N1
Problem: Select one: I or II . Criterion: greater recorded Enzyme degradation CDK9 (% remaining) @ 0.1 μM. The response must carry the label of the picked entry.
Solution: I
(I: 70%, II: 10%)

[a] Cc1cccc(C(=O)N[C@H]2C[C@@H](n3cnc4c(NC5CCN(CCC6CCN(C(=O)COc7ccc8c(c7)C(=O)N(C7CCC(=O)NC7=O)C8=O)CC6)CC5)ncnc43)C2)n1 (stereo partly shown)
[b] O=C1CC[C@H](n2nnc3ccc(N4CCN(C5CC6(CCN(c7ccc(Nc8ncnc9c8ncn9C8CC(NC(=O)Cc9ccccc9)C8)cc7)CC6)C5)CC4)cc3c2=O)C(=O)N1 (stereo partly shown)
Problem: Select one: a or b . Criterion: greater recorded Enzyme degradation CDK9 (% remaining) @ 0.1 μM. The response must carry the label of the picked entry.
Solution: b
(b: 50%, a: 10%)

----------
- target_entity: CDK2 (Homo sapiens)
- Construct: endogenous in cells; host or cells: MDA-MB-231
- procedure_text: CDK protein degradation activity (Western blotting), CDK2
- Assay type: cell-based
- settings: MDA-MB-231 cells, 10 μM, 16 hours, Western blot
property_measured: Enzyme degradation CDK2 (% remaining) @ 10 μM (%)

O=C1CC[C@@H](c2cccc(OCC(=O)N3CCC(CN4CCC(c5ccc(Nc6ncnc7c6ncn7C6CC(NC(=O)Cc7ccccc7)C6)cc5)CC4)CC3)c2)C(=O)N1 (some centres unmarked); 20

[P] O=C1CC[C@H](N2C(=O)c3cccc(OCC(=O)N4CCC5(CC(N6CCN(c7ccc(Nc8ncnc9c8ncn9[C@H]8C[C@@H](NC(=O)Cc9ccccc9)C8)cc7)CC6)C5)C4)c3C2=O)C(=O)N1 (some centres unmarked)
[Q] Cc1cccc(C(=O)N[C@H]2C[C@H](n3cnc4c(NCC5CCN(C(=O)CCCCCNc6ccc7c(c6)C(=O)N([C@@H]6CCC(=O)NC6=O)C7=O)CC5)ncnc43)C2)n1
Problem: Looking only at measured Enzyme degradation CDK2 (% remaining) @ 10 μM, which entry is lower, P or Q ? The response must carry the label of the picked entry.
Solution: P
(P: 10%, Q: 20%)

[I] O=C1CC[C@H](N2C(=O)c3cccc(NCC(=O)N4CCN(CC5CCN(c6ccc(Nc7ncnc8c7ncn8[C@H]7C[C@@H](NC(=O)Cc8ccccc8)C7)cc6)CC5)CC4)c3C2=O)C(=O)N1
[II] O=C1CCC(N2C(=O)c3ccc(N4CCC(C(=O)N5CCN(CC6CCN(c7ccc(Nc8ncnc9c8ncn9[C@H]8C[C@@H](NC(=O)c9c(Cl)cccc9Cl)C8)cc7)CC6)CC5)CC4)cc3C2=O)C(=O)N1 (some centres unmarked)
Problem: Looking only at measured Enzyme degradation CDK2 (% remaining) @ 10 μM, which entry is lower, I or II ? The response must carry the label of the picked entry.
Solution: I
(I: 20%, II: 30%)

----------
- target_entity: CDK9 (Homo sapiens, UniProt P50750)
- Construct: endogenous in cells; host or cells: MDA-MB-231
- procedure_text: CDK protein degradation activity (Western blotting), CDK9
- Format: cell-based
- settings: MDA-MB-231 cells, 10 μM, 16 hours, Western blot
property_measured: Enzyme degradation CDK9 (% remaining) @ 10 μM (%)

O=C1CC[C@H](N2C(=O)c3cc(F)c(N4CCN(C5CC6(CCN(c7ccc(Nc8ncnc9c8ncn9[C@H]8C[C@@H](NC(=O)Cc9ccccc9)C8)cc7)CC6)C5)CC4)cc3C2=O)C(=O)N1; 0

[1] Cc1cccc(C(=O)N[C@H]2C[C@@H](n3cnc4c(NC5CCN(C(=O)CC6CCN(C(=O)COc7cccc8c7C(=O)N([C@H]7CCC(=O)NC7=O)C8=O)CC6)CC5)ncnc43)C2)n1
[2] COc1ccc(C(=O)N2CCC3(CC2)CC(N2CCC(c4ccc(Nc5ncnc6c5ncn6[C@H]5C[C@@H](NC(=O)Cc6ccccc6)C5)cc4)CC2)C3)cc1N1CCC(=O)NC1=O
Problem: Looking only at measured Enzyme degradation CDK9 (% remaining) @ 10 μM, which entry is lower, 1 or 2 ? The response must carry the label of the picked entry.
Solution: 1
